System Tested: Syk catalytic domain (aa 356-635 with a C-terminal His-tag) (Homo sapiens, UniProt P43405)
Construct: His-tag (C); made in house
Protocol Notes: In vitro Syk kinase activity measured by trFRET, Syk catalytic domain
Format: biochemical
pIC50: −log10 of the molar value.
Reported Property: pIC50

Below: 2 compounds and their reported pIC50.
Cc1nc(-c2cccnc2)c2cnc3[nH]ccc3n12 | 5.00 to 6.00
c1cc(-c2nc(C3CCCCC3)n3c2cnc2[nH]ccc23)ccn1 | 6.00 to 7.00

Query (compound): CC(C)(O)c1ccc(-c2nc(CN3CCC(N)CC3)n3c2cnc2[nH]ccc23)cc1 ; field requested: pIC50 6.00 to 7.00

Could you tell me which pIC50 is on file for CC(C)S(=O)(=O)c1ccc(-c2nc(C3CCCCC3)n3c2cnc2[nH]ccc23)cc1 ? 6.00 to 7.00

Given CC(C)(O)c1ccc(-c2nc(CC3CCNCC3)n3c2cnc2[nH]ccc23)cc1 , state its recorded pIC50. > 7.00

Find the recorded pIC50 belonging to CC(C)(O)c1ccc(-c2nc(C3CCOCC3)n3c2cnc2[nH]cc(C#N)c23)cc1 and report it. 5.00 to 6.00

Query (compound): COc1ccc(-c2nc(C)n3c2cnc2[nH]ccc23)c(F)c1 ; field requested: pIC50 5.00 to 6.00

Returns the measured pIC50 for the input compound. Input: CC(C)(O)c1ccc(-c2nc(CN)n3c2cnc2[nH]ccc23)cc1 5.00 to 6.00

Consider the compound Cc1nc(-c2ccc(OCCN3CCOCC3)cc2)c2cnc3[nH]ccc3n12 and give its measured pIC50. > 7.00

* * *

System Tested: Syk catalytic domain (aa 356-635 with a C-terminal His-tag) (Homo sapiens)
Construct: His-tag (C); made in house
Protocol Notes: In vitro Syk kinase activity measured by trFRET, Syk catalytic domain
Assay type: biochemical
IC50 values by entry

Cn1ccc2cc(-c3nc(C4CCCCC4)n4c3cnc3[nH]ccc34)ccc21 | 100 to 1000 nM

// IC50 lookup, key: Cc1nc(C2=CCN(C(=O)OC(C)(C)C)CC2)c2cnc3[nH]ccc3n12 1000 to 10000 nM

Query (molecule): Cc1nc(-c2ccc(CNS(=O)(=O)C3CC3)cc2)c2cnc3[nH]ccc3n12 ; field requested: IC50 100 to 1000 nM

Value lookup for IC50; key = COc1ccc(-c2nc(C)n3c2cnc2[nH]ccc23)c(OC)c1 1000 to 10000 nM

# input molecule: Cc1nc(-c2cccc(S(C)(=O)=O)c2)c2cnc3[nH]ccc3n12 ; wanted: its IC50 100 to 1000 nM

Return reported IC50; argument: C1=C(c2ncn3c2cnc2[nH]ccc23)CCNC1 > 10000 nM

* * *

# IC50 listing for each entry below
System Tested: Syk catalytic domain (aa 356-635 with a C-terminal His-tag) (Homo sapiens, UniProt P43405)
Construct: His-tag (C); made in house
Protocol Notes: In vitro Syk kinase activity measured by trFRET, Syk catalytic domain
Type: biochemical
Cond: Syk catalytic domain (aa 356-635), trFRET, 0.001 mM ATP

CCc1c(-c2ccc(C(C)(C)O)cc2)[nH]c2ncc3nccn3c12 | 100 to 1000 nM
CCc1c(-c2cn(C)c3ccc(OC)cc23)[nH]c2ncc3cnn(C)c3c12 | 1000 to 10000 nM
CC(=O)c1ccc(-c2cc3c(ncc4cnc(C(=O)N5CCCC5)n43)[nH]2)cc1 | < 100 nM

Please give the measured IC50 for this molecule: Cc1ccc(-c2cc3c(ncc4cnn(C)c43)[nH]2)c(C)c1 1000 to 10000 nM

Which IC50 reading was recorded for the molecule COc1ccc2c(c1)c(-c1cc3c(ncc4cnc([C@@H]5CCN(C(C)=O)C5)n43)[nH]1)cn2C ? 100 to 1000 nM

Which IC50 is reported for this molecule? CCc1c(-c2ccc(OCCOC)cc2)[nH]c2ncc3cnn(C)c3c12 100 to 1000 nM

Would you kindly share the measured IC50 for COc1ccc(-c2cc3c(ncc4c(C)ncn43)[nH]2)cc1 ? 1000 to 10000 nM

Given the entry Cc1ncc2cnc3[nH]c(-c4cccc(S(C)(=O)=O)c4)cc3n12 , report its measured IC50. < 100 nM

State the recorded IC50 for this entry: CC(C)(O)c1ccc(-c2nc(C3CCCNC3)n3c2cnc2[nH]ccc23)cc1 (stereo not shown) < 100 nM

Given the entry CN1CCc2cnc3[nH]c(-c4ccc(C(C)(C)O)cc4)cc3c21 , report its measured IC50. 1000 to 10000 nM

Sample COc1ccc(-c2nc(C(=O)NCCO)n3c2cnc2[nH]ccc23)cc1 — what was its IC50? < 100 nM
